Target: T1, TIGIT (T cell immunoreceptor with Ig and ITIM domains) (human, UniProt Q495A1 22-141, limits assumed)
T1 construct: also called hTIGIT; human TIGIT
T1 sequence (looked up): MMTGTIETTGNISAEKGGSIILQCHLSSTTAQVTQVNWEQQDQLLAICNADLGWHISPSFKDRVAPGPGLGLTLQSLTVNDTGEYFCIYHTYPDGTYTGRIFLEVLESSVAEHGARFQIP
Assay: SPR kinetics
readout: pKd
pKd is a log-scale quantity: -log10 of the concentration expressed in molar.

binder	recordedNumber
TIGIT-211-116 (antibody, V domains shown) VH: EVQLLESGGGLVQPGGSLRLSCAASGFTFSRYFMGWVRQAPGKGLEWVSAISGSGGNTYYADSVKGRFTISRDNSKNTLYLQMNSLRAEDTAVYYCARVWRNHLDYWGQGTLVTVSS VL: DIQMTQSPSSLSASVGDRVTITCRASQTIERRLNWYQQKPGKAPKLLIYHDNKRPSGVPSRFSGSGSGTDFTLTISSLQPEDFATYYCQQGYTLPWTFGQGTKVEIK	3.57
TIGIT-211-13 (antibody, V domains shown) VH: EVQLLESGGGLVQPGGSLRLSCAASGFTFNKYPMMWVRQAPGKGLEWVSYISSSGSSTYYADSVKGRFTISRDNSKNTLYLQMNSLRAEDTAVYYCARVIAAAGAFDYWGQGTLVTVSS VL: DIQMTQSPSSLSASVGDRVTITCRASQSIREYLHWYQQKPGKAPKLLIYFGSELRKGVPSRFSGSGSGTDFTLTISSLQPEDFATYYCGQGVLWPATFGQGTKVEIK	6.66

Report measured pKd; entry is TIGIT-211-98 (antibody, V domains shown) VH: EVQLLESGGGLVQPGGSLRLSCAASGFTFETYAMSWVRQAPGKGLEWVSVISGSGGRPNYADSVKGRFTISRDNSKNTLYLQMNSLRAEDTAVYYCAREGLWAFDYWGQGTLVTVSS VL: DIQMTQSPSSLSASVGDRVTITCRASHFIGSLLSWYQQKPGKAPKLLIYETSKLASGVPSRFSGSGSGTDFTLTISSLQPEDFATYYCQQSYSYPRTFGQGTKVEIK
3.24
